Reported cell viability (log2) values follow for various molecules
Tested on: A673/TR/shEF
Procedure Details: cell viability (LOESS-normalised, relative to median of negative controls) (log2 ratio); higher = more viable cells (less compound effect), active = hit call of the paper (over 3 MAD below the median)
Applied Conditions: 0.308 µM; library screen: screen3; EWS-FLI1 expression: high (no doxycycline); treatment time: 72 h
Screen size: about 3,200 compounds; about 300 (9.4%) showed activity. Only a selection was taken, and actives are over-represented in it overall.
Keep the answer to the number alone.

{"columns": ["Molecule", "Readout Kind", "Measured Value"],
 "data": [
  ["O=C(CCCCCCC(=O)Nc1ccccc1)NO", "cell viability (log2)", 0.0409],
  ["Oc1ccc(/C=C/c2cc(O)cc(O)c2)cc1", "cell viability (log2)", -0.0479]
]}

input: Field request: cell viability (log2) | item: Cc1ccc(C(=O)Nc2ccc(CN3CCN(C)CC3)c(C(F)(F)F)c2)cc1C#Cc1cnc2cccnn12
output: -0.0138

input: Field request: cell viability (log2) | item: COc1ccc2nc([S+]([O-])Cc3ncc(C)c(OC)c3C)[nH]c2c1 (stereo unspecified)
output: -0.0266

input: Field request: cell viability (log2) | item: CCC(C)n1ncn(-c2ccc(N3CCN(c4ccc(OC[C@H]5CO[C@](Cn6cncn6)(c6ccc(Cl)cc6Cl)O5)cc4)CC3)cc2)c1=O (stereo partly specified)
output: 0.0158

input: Field request: cell viability (log2) | item: CS(=O)(=O)CCNCc1ccc(-c2ccc3ncnc(Nc4ccc(OCc5cccc(F)c5)c(Cl)c4)c3c2)o1
output: 0.146

----------
System: A673/TR/shEF
Procedure Details: cell viability (LOESS-normalised, relative to median of negative controls) (log2 ratio); higher = more viable cells (less compound effect), active = hit call of the paper (over 3 MAD below the median)
Applied Conditions: 0.25 µM; library screen: screen1; EWS-FLI1 expression: high (no doxycycline); treatment time: 72 h
Hit rate of the full screen: of about 3,200 compounds, about 300 (9.4%) showed activity. This excerpt belongs to a sample that is enriched for actives.
Outcomes you can answer with include only these: y (active), n (inactive)

Take a look at these entries with their results.
{"columns": ["Compound", "Label Class"],
 "data": [
  ["Brc1ccc([C@H]2CN3CCSC3=N2)cc1", "n"],
  ["Cn1cnc2c(NCc3ccccc3)nc(NCCO)nc21", "n"],
  ["CCOc1ccccc1N1C(=O)c2cccc3cccc(c23)C1=O", "n"],
  ["COc1ccc2c(c1)O[C@H]1c3ccc(O)cc3OC[C@@H]21", "n"],
  ["CCOc1cccc(=O)c2c(C)[nH]c(C)c12", "n"],
  ["COc1cc(O)c2c(=O)cc(C)oc2c1CC=C(C)C", "n"],
  ["CC(C)C[C@H](NC(=O)[C@H](CCC(=O)O)NC(=O)CNC(=O)c1ccc(/C=C/C(=O)O)cc1)C(N)=O", "n"],
  ["CC(C)n1cnc2c(NCc3ccccc3)nc(NCCO)nc21", "n"]
]}

input: Please let me know the test result on file for COC1CCC2(C)C(CCC3C2CCC2(C)C(C(C)CCCC(C)C)CCC32)C1 (centres undefined) .
output: n

----------
Test system: A673/TR/shEF
Procedure Details: cell viability (LOESS-normalised, relative to median of negative controls) (log2 ratio); higher = more viable cells (less compound effect), active = hit call of the paper (over 3 MAD below the median)
Applied Conditions: 0.25 µM; library screen: screen1; EWS-FLI1 expression: high (no doxycycline); treatment time: 72 h
Hit rate of the full screen: of about 3,200 compounds, about 300 (9.4%) showed activity. This is one part of a sample in which actives are shown more often than they occur.
# thresholds on cell viability (log2) define classes: bottom bin = under 0.04, middle bin = from 0.04 up to 0.1, top bin = 0.1 and over

Take a look at these entries with their results.
{"columns": ["Compound", "Label Class"],
 "data": [
  ["N=c1ccn2c(n1)O[C@H]1[C@H](O)[C@@H](CO)O[C@H]12", "bottom bin"],
  ["CC1CCC2(OC1)OC1CC3C4CCC5C[C@@H](O)CCC5(C)C4=CCC3(C)C1[C@@H]2C (some centres undefined)", "middle bin"],
  ["COc1ccc(CN2CCN(Cc3ccccc3Br)CC2)cc1OC", "middle bin"]
]}

input: Quick check: band for CC(C)C[C@@H]1NC(=O)[C@H](CCCN)NC(=O)[C@H](C(C)C)NC(=O)[C@@H]2CCCN2C(=O)[C@@H](Cc2ccccc2)NC(=O)[C@H](CC(C)C)NC(=O)[C@H](CCCN)NC(=O)[C@H](C(C)C)NC(=O)[C@@H]2CCCN2C(=O)[C@@H](Cc2ccccc2)NC1=O
output: bottom bin

input: Quick check: band for COc1ccc(OC)c(CN2CCN(Cc3ccccc3F)CC2)c1
output: middle bin

input: Quick check: band for COc1ccc(-c2coc3cc(OC)cc(O)c3c2=O)cc1
output: bottom bin

input: Quick check: band for COc1ccc(CN2CCN(Cc3ccc(OC)c(OC)c3OC)CC2)cc1Br
output: top bin

input: Quick check: band for CN([C@@H](Cc1ccc(OS(=O)(=O)c2cccc3cnccc23)cc1)C(=O)N1CCN(c2ccccc2)CC1)S(=O)(=O)c1cccc2cnccc12
output: top bin

input: Quick check: band for O=C(O)c1cc(O)ccc1O
output: bottom bin

----------
Tested on: A673/TR/shEF
Procedure Details: cell viability (LOESS-normalised, relative to median of negative controls) (log2 ratio); higher = more viable cells (less compound effect), active = hit call of the paper (over 3 MAD below the median)
Applied Conditions: 2.5 µM; library screen: screen1; EWS-FLI1 expression: low (doxycycline-induced shRNA knockdown); treatment time: 72 h
The campaign covered roughly 3,200 compounds. About 300 (9.4%) showed activity. Shown is part of a subset that was picked to be rich in actives.
Hi! Just check whether cell viability (log2) is below 0.1. Below gives Y, equal or above gives N.

Take a look at these entries with their results.
{"columns": ["Compound", "Label Class"],
 "data": [
  ["CC(=O)Oc1ccc2c(c1)CCC1C2CCC2(C)C(=O)CCC12 (stereo not given)", "Y"],
  ["COc1cc(O)c2c(=O)cc(-c3ccc(OC)c(-c4c(O)cc(O)c5c(=O)cc(-c6ccc(O)cc6)oc45)c3)oc2c1", "Y"],
  ["CN(C)CCCn1cc(C2=C(c3c[nH]c4ccccc34)C(=O)NC2=O)c2ccccc21", "N"],
  ["COc1c(O)cc(O)c2c(=O)c(-c3ccc(O)cc3)coc12", "N"]
]}

With those in mind, consider the next compound.
input: Record CC(=O)CCC(=O)O : is its cell viability (log2) strictly below 0.1?
output: N

----------
Test system: A673/TR/shEF
Procedure Details: cell viability (LOESS-normalised, relative to median of negative controls) (log2 ratio); higher = more viable cells (less compound effect), active = hit call of the paper (over 3 MAD below the median)
Applied Conditions: 25 µM; library screen: screen3; EWS-FLI1 expression: low (doxycycline-induced shRNA knockdown); treatment time: 72 h
The campaign covered roughly 3,200 compounds. About 300 (9.4%) showed activity. The sample as a whole holds a higher share of actives than the screen did.
# thresholds on cell viability (log2) define classes: bottom: < -0.01; middle: ≥ -0.01 and < 0.09; top: ≥ 0.09

{"columns": ["Molecule", "Label Class"],
 "data": [
  ["CCN(CC)C(=S)SSC(=S)N(CC)CC", "bottom"]
]}

input: Quick check: band for C[C@H](Cn1cnc2c(N)ncnc21)OCP(=O)(O)O
output: top

input: Quick check: band for C[N+]1(C)C2CC(OC(=O)C(O)(c3cccs3)c3cccs3)CC1C1OC12 (configuration not stated)
output: top

input: Quick check: band for CCC1(c2ccccc2)C(=O)NCNC1=O
output: top

----------
Reported cell viability (log2) values follow for various compounds
Tested on: A673/TR/shEF
Procedure Details: cell viability (LOESS-normalised, relative to median of negative controls) (log2 ratio); higher = more viable cells (less compound effect), active = hit call of the paper (over 3 MAD below the median)
Applied Conditions: 0.025 µM; library screen: screen1; EWS-FLI1 expression: high (no doxycycline); treatment time: 72 h
The whole screen tested about 3,200 compounds, of which about 300 (9.4%) showed activity. The sample holds actives, similar compounds and a random draw of the others, so the mix is not that of the screen.
Keep the answer to the number alone.

Before answering, review these 2 worked examples.
{"columns": ["Compound", "Measured Value"],
 "data": [
  ["N#C/C(=C\\c1cc(Cl)cc(Cl)c1)c1cccnc1", 0.0512],
  ["Cn1cc(C2=C(c3cn(CCCSC(=N)N)c4ccccc34)C(=O)NC2=O)c2ccccc21", 0.0502]
]}

input: Field request: cell viability (log2) | item: CC1CNCCN1S(=O)(=O)c1cccc2cnccc12 (centres undefined)
output: 0.354

input: Field request: cell viability (log2) | item: COC(=O)/C=C/c1cc(O)ccc1O
output: 0.177

input: Field request: cell viability (log2) | item: Cc1cc2ncc(-c3ccccc3)nc2cc1C
output: 0.21
